pEC50 listing for selected compounds.
# ASSAY_SYSTEM: CB2 receptor (Homo sapiens, UniProt P34972)
# Sequence (P34972 whole entry): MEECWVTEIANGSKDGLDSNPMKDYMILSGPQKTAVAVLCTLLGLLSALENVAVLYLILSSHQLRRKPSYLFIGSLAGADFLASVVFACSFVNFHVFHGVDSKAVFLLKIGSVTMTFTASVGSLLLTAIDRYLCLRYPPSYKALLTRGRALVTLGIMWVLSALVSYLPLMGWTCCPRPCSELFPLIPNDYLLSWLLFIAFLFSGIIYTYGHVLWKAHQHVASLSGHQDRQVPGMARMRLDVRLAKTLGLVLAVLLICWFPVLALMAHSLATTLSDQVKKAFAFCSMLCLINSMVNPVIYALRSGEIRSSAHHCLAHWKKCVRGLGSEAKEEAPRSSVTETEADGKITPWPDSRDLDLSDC
# RUN_DESCRIPTION: cAMP Assay #1: CB2 adenylylcyclase assay in CHO cells
# Assay type: cell-based
# Design: expressed in transfected cells; host or cells: CHO cells
# CONDITIONS_USED: CHO cells, 10 min 37° C., relative to 100 nM WIN 55212-2; read-out: CB2 Activity EC50 (cAMP)
Reminder that pEC50 is minus the log10 of a molar concentration.

Consider the reported pEC50 for these compounds:
| COMPOUND | pEC50 |
| --- | --- |
| CCCCCCC(C)(C)c1cc(O)c2c(c1)OC(C)(C)[C@@H]1CC=C(C(=O)NC[C@H](O)CO)C[C@@H]21 | 8.06 |
| CCCCCCC(C)(C)c1cc(O)c2c(c1)OC(C)(C)[C@@H]1CC=C(C(=O)N[C@H](C)CCO)C[C@@H]21 | 8.01 |
| CCCCCCC(C)(C)c1cc(O)c2c(c1)OC(C)(C)[C@@H]1CC=C(C(=O)NCC(O)CO)C[C@@H]21 (stereo partly shown) | 8.62 |
| CCCCCCC(C)(C)c1cc(O)c2c(c1)OC(C)(C)[C@@H]1CC=C(C(=O)NC(C)(C)CCO)C[C@@H]21 | 8.12 |
| CCCCCCC(C)(C)c1cc(O)c2c(c1)OC(C)(C)[C@@H]1CC=C(C(=O)NC(CO)CO)C[C@@H]21 | 7.96 |

## Input Give pEC50 for the following compound: CCCCCCC(C)(C)c1cc(O)c2c(c1)OC(C)(C)[C@@H]1CC=C(C(=O)NC[C@@H](O)CO)C[C@@H]21
## Output 8.28

## Input Return pEC50 for the following compound: CCCCCCC(C)(C)c1cc(O)c2c(c1)OC(C)(C)[C@@H]1CC=C(C(=O)NCCCO)C[C@@H]21
## Output 8.51

Values from patent US20210284621A1
